Source: ChEMBL document CHEMBL3603817

- PROTOCOL_NOTES: Distribution coefficient, log D of the compound by HPLC method
- Assay type: physicochemical
- TEST_CONDITIONS: octanol/water
MEASURED_METRIC: logD

The following compounds have reported results that may help.
{"COMPOUND": "Nc1ccccc1NC(=O)c1ccc(CNC2=N[C@H](c3ccccc3)[C@H](c3ccccc3)O2)cc1", "logD": 4.54}
{"COMPOUND": "Nc1ccccc1NC(=O)c1ccc(CNC2=NC(c3cccc(F)c3)CO2)cc1 (stereo not given)", "logD": 3.42}
{"COMPOUND": "Nc1ccccc1NC(=O)c1ccc(CNC2=NC(c3ccc(C(F)(F)F)cc3)CO2)cc1 (stereo not given)", "logD": 4.54}
{"COMPOUND": "Nc1ccccc1NC(=O)c1ccc(CNC2=N[C@@H](c3cccnc3)CO2)cc1", "logD": 1.71}
{"COMPOUND": "Nc1ccccc1NC(=O)c1ccc(CSC2=N[C@@H](c3ccccc3)CN2)cc1", "logD": 3.49}
{"COMPOUND": "Nc1ccccc1NC(=O)c1ccc(CNC2=NC[C@H](c3ccccc3)O2)cc1", "logD": 2.99}

[a] Nc1ccccc1NC(=O)c1ccc(CNC2=N[C@H](c3ccccc3)CO2)cc1
[b] Nc1ccccc1NC(=O)c1ccc(CNC2=N[C@@H](c3ccc(O)cc3)CO2)cc1
[c] Nc1ccccc1NC(=O)c1ccc(CNC2=N[C@@H](Cc3c[nH]cn3)CO2)cc1
[d] Nc1ccccc1NC(=O)c1ccc(CNC2=NC(c3ccccc3)(c3ccccc3)CO2)cc1
Q) Sort entries by logD from minimum to maximum value. To answer, write out the labels according to the requested order.
A) c, b, a, d
